Biological target: T1, cynomolgus monkey E-selectin extracellular domain with 10 His purification tail (cynomolgus monkey, UniProt P16581 22-554 (human entry))
T1 construct: also called cynomolgus E-selectin; truncated cynomolgus monkey E-selectin
T1 chain: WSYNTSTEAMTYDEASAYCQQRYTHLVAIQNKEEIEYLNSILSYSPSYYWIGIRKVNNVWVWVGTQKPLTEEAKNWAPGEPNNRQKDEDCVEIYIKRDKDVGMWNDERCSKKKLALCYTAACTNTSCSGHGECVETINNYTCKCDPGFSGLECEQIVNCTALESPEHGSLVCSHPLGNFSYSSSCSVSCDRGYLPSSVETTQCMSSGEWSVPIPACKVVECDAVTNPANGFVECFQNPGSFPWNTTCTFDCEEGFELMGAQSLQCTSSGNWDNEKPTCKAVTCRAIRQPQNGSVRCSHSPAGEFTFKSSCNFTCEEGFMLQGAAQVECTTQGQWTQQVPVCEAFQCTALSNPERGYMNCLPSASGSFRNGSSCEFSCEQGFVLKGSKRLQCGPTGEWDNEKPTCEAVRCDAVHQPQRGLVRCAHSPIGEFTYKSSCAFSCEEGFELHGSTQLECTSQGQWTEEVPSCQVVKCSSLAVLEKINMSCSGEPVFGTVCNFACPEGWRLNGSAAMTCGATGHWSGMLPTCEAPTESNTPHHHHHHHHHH
Experiment: SPR, antibody captured, E-selectin analyte
This section presents binders with their documented pKd values.
In plain terms, pKd is the concentration in mol/L turned into minus its base-10 logarithm.

A selection of reference data follows.
binder: optimized anti-E-selectin antibody 1448 (antibody, human IgG1, kappa, V domains shown, effector-null human IgG1, kappa) VH: EVQLVESGGGLVQPGGSLRLSCAASGYAIRSAYMHWVRQAPGKGLEWVARIDPANGNTIYVDSVKERFTISADNAKNSAYLQMNSLRAEDTAVYYCAMDLYSTSEYWGQGTLVTVSS VL: DIQMTQSPSSLSASVGDRVTITCKTSQNIERYLNWYQQKPGKAPKLLIYAASSLQSGVPSRFSGSGSGTDFTLTISSLQPEDFATYFCLQDNAWPLTFGQGTKVEIKR
recorded result: 7.17
//
binder: optimized anti-E-selectin antibody 1444 (antibody, human IgG1, kappa, V domains shown, effector-null human IgG1, kappa) VH: EVQLVESGGGLVQPGGSLRLSCAASGYAIRSAYMHWVRQAPGKGLEWVARIDPANGNTIYVDSVTGRFTISADNAKNSAYLQMNSLRAEDTAVYYCAMDLYSTSEYWGQGTLVTVSS VL: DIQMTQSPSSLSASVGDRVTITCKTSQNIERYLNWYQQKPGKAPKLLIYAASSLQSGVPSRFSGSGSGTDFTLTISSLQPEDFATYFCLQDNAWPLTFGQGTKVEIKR
recorded result: 7.09
//
binder: optimized anti-E-selectin antibody 1282 (antibody, human IgG1, kappa, V domains shown, effector-null human IgG1, kappa) VH: EVQLVESGGGLVQPGGSLRLSCAASGYAIRSAYMHWVRQAPGKGLEWVARIDPANGNTIYVDSVEGRFTISADNAKNSAYLQMNSLRAEDTAVYYCAMDLYSTSEYWGQGTLVTVSS VL: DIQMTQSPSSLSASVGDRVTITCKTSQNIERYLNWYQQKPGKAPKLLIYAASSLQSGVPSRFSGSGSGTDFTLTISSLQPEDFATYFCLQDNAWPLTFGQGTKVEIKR
recorded result: 7.11

Now consider a different binder.
Problem: What measured pKd goes with optimized anti-E-selectin antibody 1284 (antibody, human IgG1, kappa, V domains shown, effector-null human IgG1, kappa) VH: EVQLVESGGGLVQPGGSLRLSCAASGYAIRSAYMHWVRQAPGKGLEWVARIDPANGNTIYVESVEGRFTISADNAKNSAYLQMNSLRAEDTAVYYCAMDLYSTSEYWGQGTLVTVSS VL: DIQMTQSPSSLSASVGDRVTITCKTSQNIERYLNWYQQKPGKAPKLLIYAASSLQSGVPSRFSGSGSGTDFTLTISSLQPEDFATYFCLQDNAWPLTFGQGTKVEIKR ?
Result: 7.12

FYI, the data here is from patent US20240076386A1.
